- Test system: Mus musculus
- Test summary: Neurotoxicity in po dosed mouse by rotarod test
- Assay type: toxicity, organism-based
- Condition context: in vivo
Consider the following compounds and their measured ED50 readings.
Field: numeric (mg/kg). Do not append units.

Observe how each entry below is paired with its result.
CNCC(=O)Nc1ccc(C2NC(=O)C(C)(C)c3ccccc32)cc1 (configuration not stated) ... 600
CNCC(=O)Nc1ccc(C2NC(=O)Cc3ccccc32)cc1 (configuration not stated) ... 270
CCCNCC(=O)Nc1ccc(C2NC(=O)C(C)(C)c3ccccc32)cc1 (configuration not stated) ... 435
CCN(CC)CC(=O)Nc1ccc(C2NC(=O)C(C)(C)c3ccccc32)cc1 (configuration not stated) ... 1300
CCCNCC(=O)Nc1ccc(C2NC(=O)C(C(C)C)c3ccccc32)cc1 (configuration not stated) ... 50
CC1(C)C(=O)NC(c2ccc(NC(=O)CN)cc2)c2ccccc21 (configuration not stated) ... 420
CC1(C)C(=O)NC(c2ccc(N)cc2)c2ccccc21 (configuration not stated) ... 240
CCNCC(=O)Nc1ccc(C2NC(=O)Cc3ccccc32)cc1 (configuration not stated) ... 520

INPUT: # get_value(readout='ED50', item= CC(C)NCC(=O)Nc1ccc(C2NC(=O)C(C)(C)c3ccccc32)cc1 (configuration not stated) )
OUTPUT: 1600

INPUT: # get_value(readout='ED50', item= CCCNCC(=O)Nc1ccc(C2NC(=O)Cc3ccccc32)cc1 (configuration not stated) )
OUTPUT: 490

INPUT: # get_value(readout='ED50', item= `O=C1NC(=O)C(c2ccccc2)(c2ccccc2)N1` )
OUTPUT: 79.5

INPUT: # get_value(readout='ED50', item= O=C1Cc2ccccc2C(c2ccccc2)N1 (configuration not stated) )
OUTPUT: 730

INPUT: # get_value(readout='ED50', item= CCCCN(CCCC)CC(=O)Nc1ccc(C2NC(=O)C(C)(C)c3ccccc32)cc1 (configuration not stated) )
OUTPUT: 600

INPUT: # get_value(readout='ED50', item= Cc1ccc2c(c1)C(c1ccc(N)cc1)NC(=O)C2(C)C (configuration not stated) )
OUTPUT: 1030

INPUT: # get_value(readout='ED50', item= CC(C)C1C(=O)NC(c2ccc(N)cc2)c2ccccc21 (configuration not stated) )
OUTPUT: 358

INPUT: # get_value(readout='ED50', item= CC(C)NCC(=O)Nc1ccc(C2NC(=O)Cc3ccccc32)cc1 (configuration not stated) )
OUTPUT: 270

INPUT: # get_value(readout='ED50', item= CCCCNCC(=O)Nc1ccc(C2NC(=O)C(C)(C)c3ccccc32)cc1 (configuration not stated) )
OUTPUT: 335

INPUT: # get_value(readout='ED50', item= CCNCC(=O)Nc1ccc(C2NC(=O)C(C)(C)c3ccccc32)cc1 (configuration not stated) )
OUTPUT: 760

INPUT: # get_value(readout='ED50', item= CC(C)C1C(=O)NC(c2ccc(NC(=O)CCCN3CCCC3)cc2)c2ccccc21 (configuration not stated) )
OUTPUT: 86

* * *

- Test summary: Acute toxicity in po dosed mouse assessed as mortality after 24 hrs
- Assay type: organism-based
- Condition context: in vivo
Measurement label: LD50 at 24 h

Observe how each entry below is paired with its result.
CC1C(=O)NC(c2ccc(N)cc2)c2ccccc21 (stereo not drawn) ... > 2000 mg/kg
O=C(CN1CCCCC1)Nc1ccc(C2NC(=O)Cc3ccccc32)cc1 (stereo not drawn) ... > 2000 mg/kg

Proceeding to the next compound to report its LD50 at 24 h.
INPUT: # get_value(readout='LD50 at 24 h', item= CCCNCC(=O)Nc1ccc(C2NC(=O)C(C)c3ccccc32)cc1 (stereo not drawn) )
OUTPUT: > 1600 mg/kg
